Hello, the source for this data is patent US5159081A, in case you need it.

Listed here: items and their measured inhibition at 0.1 µM.
- target: mu receptor (Rattus norvegicus)
- Construct: The brain tissue, rat whole brain minus cerebellum for mu was homogenized; from tissue; host or cells: brain minus cerebellum of male Sprague Dawley rats, homogenate fraction
- Sequence (P33535 whole entry): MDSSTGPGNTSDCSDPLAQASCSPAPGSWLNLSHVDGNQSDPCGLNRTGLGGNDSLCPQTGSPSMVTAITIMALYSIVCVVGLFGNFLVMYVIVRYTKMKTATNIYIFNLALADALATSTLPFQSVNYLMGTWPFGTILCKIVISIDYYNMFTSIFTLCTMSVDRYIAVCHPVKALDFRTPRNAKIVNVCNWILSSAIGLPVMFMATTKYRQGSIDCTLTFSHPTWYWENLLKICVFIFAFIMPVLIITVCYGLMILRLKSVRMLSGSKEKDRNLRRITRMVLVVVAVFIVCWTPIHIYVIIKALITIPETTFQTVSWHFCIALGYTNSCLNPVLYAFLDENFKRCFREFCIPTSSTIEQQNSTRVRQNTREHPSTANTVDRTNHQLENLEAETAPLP
- experimental-protocol: Naloxone [3H] opioid receptor binding assay (mu receptor)
- Parameters: species or system rat (male Sprague Dawley)
- measurement-conditions: 20 min, pH 7.4, read-out: % displacement at 100 nM
Structures can show the parent of a compound that is named as a salt.
All answers are understood in %, so give the number only.

C[C@H]1CN(CCN(CC2CCCCC2)C(=O)CCC(=O)O)CC[C@@]1(C)c1cccc(O)c1 (relative stereo) [Example 26, monohydrate] | 100
COC(=O)CCCC(=O)N[C@@H](CC1CCCCC1)CN1CC[C@@](C)(c2cccc(O)c2)[C@@H](C)C1 | 99
C[C@H]1CN(CC(Cc2ccccc2)NC(=O)CCCNC(=O)OC(C)(C)C)CC[C@@]1(C)c1cccc(O)c1 (stereo partly drawn) [Example 18, monohydrochloride] | 100
CCNC(=O)COC(=O)CCCC(=O)N[C@@H](CC1CCCCC1)CN1CC[C@@](C)(c2cccc(O)c2)[C@@H](C)C1 | 94
C[C@H]1CN(CC(Cc2ccccc2)NC(=O)CCCC(=O)O)CC[C@@]1(C)c1cccc(O)c1 (relative stereo) [Example 15, monohydrate] | 99

Next item in the queue.
QUERY: Provide one value: measured inhibition at 0.1 µM of CC1CN(C[C@H](CC2CCCCC2)NC(=O)CCCC(=O)O)CCC1(C)c1cccc(O)c1 (single isomer, unassigned; (+))
RESULT: 100
